- Test system: RPMI-8226 leukemia
- ASSAY_TEXT: NCI tumour cell line growth inhibition, 48 h; in the data active = GI50 below about 0.43 µM; inactive = the rest
Outcome field: choose from active, inactive

# count of solved cases: 4
[
  {
    "MOLECULE": "CNCCCn1c2c(c3ccc([N+](=O)[O-])cc3c1=O)C(=O)c1cc(OC)cnc1-2",
    "ASSIGNED_CLASS": "active"
  },
  {
    "MOLECULE": "O=S(=O)(Nc1ccc(Br)c(Cl)c1)c1ccc(-c2cnc(C3CC3)o2)cc1",
    "ASSIGNED_CLASS": "inactive"
  },
  {
    "MOLECULE": "O=C1C(N2CC2)=C(N2CC2)C(=O)C(N2CC2)=C1N1CC1",
    "ASSIGNED_CLASS": "inactive"
  },
  {
    "MOLECULE": "O=c1cc(-c2ccccc2F)[nH]c2ccc(N3CCCC3)cc12",
    "ASSIGNED_CLASS": "active"
  }
]

Would you kindly look at the next entry?
IN: # outcome recorded in this test, key = O=C(Nc1ccncc1)C(=O)c1cn(Cc2ccc(Cl)cc2)c2ccccc12
OUT: active

* * *

- Test system: SF-295 CNS
- ASSAY_TEXT: NCI tumour cell line growth inhibition, 48 h
RECORDED_ENDPOINT: TGI

Solved entries (count: 3):
[
  {
    "COMPOUND": "Nc1nc(N)c2nc(CNc3ccc(C(=O)NC(CC(=O)O)C(=O)O)cc3)cnc2n1 (stereo not drawn)",
    "TGI": "> 34.6 µM"
  },
  {
    "COMPOUND": "C(=N\\NC1=NCCN1)/c1ccc(-c2cn3cc(/C=N/NC4=NCCN4)ccc3n2)cc1",
    "TGI": "> 70.1 µM"
  },
  {
    "COMPOUND": "CCn1c(-c2ccc(N=NNc3ccc(-c4n[nH]c(=S)n4CC)cc3)cc2)n[nH]c1=S",
    "TGI": "7.1 µM"
  }
]

Return reported TGI values for all items listed beneath this line.
1. O=C(Nc1ccncc1)C(=O)c1cn(Cc2ccc(Cl)cc2)c2ccccc12
2. COC(=O)CNS(=O)(=O)c1ccc(-c2c3nc(c(-c4ccc(S(=O)(=O)NCC(=O)OC)cc4)c4ccc([nH]4)c(-c4ccc(S(=O)(=O)NCC(=O)OC)cc4)c4nc(c(-c5ccc(S(=O)(=O)NCC(=O)OC)cc5)c5ccc2[nH]5)C=C4)C=C3)cc1
3. CC(=O)OCC1OC(c2nc3ccccc3s2)=CC(OC(C)=O)C1OC(C)=O (stereo not drawn)

OUT:
1. 0.0803 µM
2. > 100 µM
3. > 100 µM

* * *

- Test system: NCI-H226 lung
- ASSAY_TEXT: NCI tumour cell line growth inhibition, 48 h
Hi there, I'd appreciate the recorded TGI for every entry that follows.

Solved entries (count: 6):
[
  {
    "MOLECULE": "CC(=O)OCC1OC(OC2CC3C(C)(C)C(OC(C)=O)CC[C@]3(C)C3CCC45CC4(CCC5[C@@H](C)C[C@H](O)C(O)C(C)(C)O)[C@]23C)C(O)C(O)C1O (some centres undefined)",
    "TESTED_ON": "NCI-H226 lung",
    "RECORDED_ENDPOINT": "TGI",
    "TEST_VALUE": "> 10 µM"
  },
  {
    "MOLECULE": "CNC(=O)OCc1c(CO)nc(SC)n1C",
    "TESTED_ON": "NCI-H226 lung",
    "RECORDED_ENDPOINT": "TGI",
    "TEST_VALUE": "> 100 µM"
  },
  {
    "MOLECULE": "COC1=CC(c2ccc[nH]2)=N/C1=C\\c1[nH]c(C)c(C(=O)CCCCC(=O)NC(C)(C)C)c1C",
    "TESTED_ON": "NCI-H226 lung",
    "RECORDED_ENDPOINT": "TGI",
    "TEST_VALUE": "15 µM"
  },
  {
    "MOLECULE": "Cc1cc2c(cc1Cl)S(=O)(=O)OC(c1ccc([N+](=O)[O-])cc1)=N2",
    "TESTED_ON": "NCI-H226 lung",
    "RECORDED_ENDPOINT": "TGI",
    "TEST_VALUE": "> 100 µM"
  },
  {
    "MOLECULE": "O=C(OCN1C(=O)C2C3C=CC(C2C1=O)C1C2C(=O)N(COC(=O)C4CCCN4)C(=O)C2C31)C1CCCN1 (centres undefined)",
    "TESTED_ON": "NCI-H226 lung",
    "RECORDED_ENDPOINT": "TGI",
    "TEST_VALUE": "> 100 µM"
  },
  {
    "MOLECULE": "CC1(N)CCN(c2cccnc2NC(=O)c2nc(-c3ncccc3C(F)(F)F)cnc2N)CC1",
    "TESTED_ON": "NCI-H226 lung",
    "RECORDED_ENDPOINT": "TGI",
    "TEST_VALUE": "> 100 µM"
  }
]

Return reported TGI values for all items listed beneath this line.
1. CC1OC(OC2C[C@](O)(C(=O)CF)Cc3c(O)c4c(c(O)c32)C(=O)c2ccccc2C4=O)CC(N)C1O (some centres undefined)
2. CCn1cnc(C[C@H](NC(=O)[C@@H](NC(=O)Nc2cc(C(F)(F)F)cc(C(F)(F)F)c2)C(C)C)C(=O)OC)c1
3. CCN(Cc1ccc(F)cc1)c1ccc(CO)c(F)c1
4. CCn1c(-c2ccc(N=NNc3ccc(-c4n[nH]c(=S)n4CC)cc3)cc2)n[nH]c1=S
5. O=C1NC(=S)N/C1=C\c1ccc(Br)s1
6. CC1OC(n2c3ccccc3c3c4c(c5c6ccccc6[nH]c5c32)C(=O)N(CCN[C@@H]2CCC[C@H]2N)C4=O)CC(O)C1O (some centres undefined)

OUT:
["< 0.0171 µM", "> 10 µM", "0.364 µM", "5.86 µM", "> 100 µM", "8.82 µM"]

* * *

- Tested on: HCT-116 colon
- ASSAY_TEXT: NCI tumour cell line growth inhibition, 48 h
Hi there, I'd appreciate the recorded TGI for every entry that follows.

[
  {
    "SMILES_STRUCTURE": "C1=CC=C2NCCCCCCCNC3=CC=CC=CC3=NCCCCCCCN=C2C=C1",
    "TEST_VALUE": "> 100 µM"
  },
  {
    "SMILES_STRUCTURE": "CCOC(=O)/C=C/n1c2ccccc2c(=O)c2ccccc21",
    "TEST_VALUE": "> 100 µM"
  }
]

Next compound, TGI to be filled in.
IN: Consider the compound shown here: COc1ccc(-n2c(=O)[nH]n(C(C)=O)c2=O)cc1 What is its recorded TGI?
OUT: > 100 µM

* * *

- Test system: K-562 leukemia
- ASSAY_TEXT: NCI tumour cell line growth inhibition, 48 h
RECORDED_ENDPOINT: TGI

Solved entries (count: 5):
[
  {
    "COMPOUND": "O=c1[nH]nc(NNc2ccccc2)c2nnn(C3CCCCC3)c12",
    "TESTED_ON": "K-562 leukemia",
    "TGI": "> 100 µM"
  },
  {
    "COMPOUND": "COc1ccc2c(c1)[n+]([O-])c(-c1ccc(OC)c(OC)c1)c(N)[n+]2[O-]",
    "TESTED_ON": "K-562 leukemia",
    "TGI": "> 100 µM"
  },
  {
    "COMPOUND": "O=S(=O)(Nc1ccc(Br)c(Cl)c1)c1ccc(-c2cnc(C3CC3)o2)cc1",
    "TESTED_ON": "K-562 leukemia",
    "TGI": "> 100 µM"
  },
  {
    "COMPOUND": "CC(C)OCC1CC(CC(=O)Nc2nncs2)C(=O)O1 (centres undefined)",
    "TESTED_ON": "K-562 leukemia",
    "TGI": "> 100 µM"
  },
  {
    "COMPOUND": "O=c1c2nc3ccccc3c(=O)n2ncn1-c1ccccc1Cl",
    "TESTED_ON": "K-562 leukemia",
    "TGI": "> 100 µM"
  }
]

Return reported TGI values for all items listed beneath this line.
1. CCOC(=O)c1c2c(n(Cc3ccc(Cl)cc3Cl)c1C)-c1nc[nH]c1C(=O)C2=O
2. O=C(OCN1C(=O)C2C3C=CC(C2C1=O)C1C2C(=O)N(COC(=O)C4CCCN4)C(=O)C2C31)C1CCCN1 (centres undefined)
3. CC(=O)O[C@H]1[C@@H]2OC(=O)[C@@](O)(CC3CCCO3)[C@@H]2CC(=O)[C@](C)(O)CC/C=C(\C)CCC[C@@H]1C (some centres undefined)
4. Brc1cc(CCOC2CCCCO2)c(-c2sccc2CCOC2CCCCO2)s1 (centres undefined)
5. Cc1ccc([N+](=O)[O-])cc1NC(=O)/C(=N/NC(=S)NN)C1SC(=S)NC1=O (centres undefined)
6. Cc1cccc(CP(Cc2cccc(C)c2)CC2(Cp3c4ccccc4c4ccccc43)COC2)c1
7. COc1cc(CO)c(CC(=O)NCCCc2ccccc2)cc1OC
8. CCn1cnc(C[C@H](NC(=O)[C@@H](NC(=O)Nc2cc(C(F)(F)F)cc(C(F)(F)F)c2)C(C)C)C(=O)OC)c1

OUT:
12.3 µM
> 100 µM
90.9 µM
> 31.6 µM
> 100 µM
> 100 µM
> 100 µM
> 10 µM
